B1: BicD2-CTD (C-terminal cargo-binding domain of human Bicaudal D2, residues 715-804) [human] / full-length GTP-bound Rab6a/Q72L with N-terminal GST tag [human] (parent complex)
chain 1: YENEKAMVTETMMKLRNELKALKEDAATFSSLRAMFATRCDEYITQLDEMQRQLAAAEDEKKTLNSLLRMAIQQKLALTQRLELLELDHE
chain 2: MSTGGDFGNPLRKFKLVFLGEQSVGKTSLITRFMYDSFDNTYQATIGIDFLSKTMYLEDRTVRLQLWDTAGLERFRSLIPSYIRDSTVAVVVYDITNVNSFQQTTKWIDDVRTERGSDVIIMLVGNKTDLADKRQVSIEEGERKAKELNVMFIETSAKAGYNVKQLFRRVAAALPGMESTQDRSREDMIDIKLEKPQEQPVSEGGCSC

Variants of: B1
Test: GST pull-down, SDS-PAGE band quantification; parent: 1; read off a plot
ratio to parent for assorted variants

Consider chain 2 S52A . Its measured ratio to parent is ~1

Consider chain 2 R74A . Its measured ratio to parent is ~0.95

Consider chain 2 D85A . Its measured ratio to parent is ~0.99

Consider chain 2 S77A . Its measured ratio to parent is ~0.86
